B1: glmS ribozyme (parent)
chain: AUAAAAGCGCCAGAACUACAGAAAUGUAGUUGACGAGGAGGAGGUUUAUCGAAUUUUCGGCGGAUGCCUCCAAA

Variants of: B1
Assay: self-cleavage kobs at 10000 uM GlcN6P; higher = faster cleavage; RNA array
Conditions: with glucosamine-6-phosphate
This sample holds only a part of the variants without activity.
Overview of reported self-cleavage kobs at 10000 uM GlcN6P across a group of variants:
QUANTITY_MEASURED: self-cleavage kobs at 10000 uM GlcN6P

U31A G32C : 0.000194 s⁻¹
A6U C11A A39G : < 1e-05 s⁻¹
C34U G37U : < 1e-05 s⁻¹
G37A U49G : 6.04e-05 s⁻¹
U30C U69C : 0.000122 s⁻¹
A12U G37A : 0.0103 s⁻¹
G44A U46A : 0.000375 s⁻¹
U31A A36G U49G C50U C58A : < 1e-05 s⁻¹
A14G G66A : 0.0634 s⁻¹
C10U G44A : < 1e-05 s⁻¹
U49A U65G C67G U69A : < 1e-05 s⁻¹
G60C C70A : < 1e-05 s⁻¹
A39G G63U G66A : < 1e-05 s⁻¹
C11A U55A U56C : 2.5e-05 s⁻¹
A14U G66A : 0.00403 s⁻¹
A6C C67A : 3.18e-05 s⁻¹
